Measured values drawn from ChEMBL document CHEMBL3507680 for this set.

- assay method text: Human HepG2 cell viability assay in 384 well format
- Assay type: toxicity, cell-based
- Parameters: dose 125 nL, time 70.5 hour; concentration not given beside the values
- run parameters: HepG2 cells, read-out: Inhibition
result type: cytotoxicity at 70.5 h (%)
State the answer as a number, implicitly in %.

CCN1CC[C@@]2(C(=O)N3CCOCC3)CCN(C(=O)CC(C)C)CC[C@@H]12 : -2.66

Prompt line: Suppose we examine the compound CC[C@H](C)[C@@H](CO)NC(C)Cc1ccc(F)cc1 (stereo partly specified) ; what cytotoxicity at 70.5 h value has been reported?
Response line: -5.84

Prompt line: Look up cytotoxicity at 70.5 h: Cc1ccc(S(=O)(=O)Cc2nnc(C)n2C)cc1
Response line: -2.49

Prompt line: Which cytotoxicity at 70.5 h reading was recorded for the compound CCN1CCC(N2CCN(C)C3(CCC(=O)N(CCOC)CC3)C2)CC1 (stereo unspecified) ?
Response line: -9.42

Prompt line: Report cytotoxicity at 70.5 h for Cn1cnnc1C1CCCN1C(=O)Nc1cccc(OC(F)F)c1 (stereo unspecified) please.
Response line: -1.48

Prompt line: Recorded cytotoxicity at 70.5 h of O=C(c1cscn1)N1CCC(O)(Cn2ccc3ccncc32)CC1 , please.
Response line: -6.76

====

- assay method text: Human HepG2 cell viability assay in 384 well format
- Type: toxicity, cell-based
- Design: dose 125 nL, time 70.5 hour; concentration not given beside the values
- run parameters: HepG2 cells, read-out: Inhibition
result type: cytotoxicity at 70.5 h (%)
Write it as a number; the unit % goes unstated.

CC1(C(=O)NCc2cccc(C(F)(F)F)c2)CCOCC1 : -5.33
CC(CO)NC(=O)c1ccc(NCc2ccc(F)c(F)c2)cc1 (configuration not stated) : -0.038
CCC(=O)N1CCCCC1c1nc(CN(C)C(C)=O)cc(N(C)C)n1 (configuration not stated) : -1.37
c1cc2c(cc1CN1CCC(Cc3noc(C4CC4)n3)CC1)OCCO2 : 20.2
CCN(CC)S(=O)(=O)c1ccc(OC)c(NC(=O)CSC)c1 : 12.2

Prompt line: Returns the measured cytotoxicity at 70.5 h for the input compound. Input: Cc1nc(Nc2ncccn2)cc(C2CCN(CC(C)C)C2)n1 (configuration not stated)
Response line: -15.1

Prompt line: What value of cytotoxicity at 70.5 h has been reported for the following compound? CC(C)=CCC1(C(=O)O)CCCN(c2ccnc(N)n2)C1 (configuration not stated)
Response line: 17

Prompt line: Suppose we examine the compound Cn1cnc2c(N3CCOCC3)nc(C3CCNCC3)cc21 ; what cytotoxicity at 70.5 h value has been reported?
Response line: -1.78

Prompt line: Would you mind telling me what cytotoxicity at 70.5 h value was observed for O=C(NCCc1cnccn1)c1cccc(S(=O)(=O)NC2CCOC2)c1 (configuration not stated) ?
Response line: -1.15

====

Parameter: cytotoxicity at 70.5 h. Scope: all listed entries.
- assay method text: Human HepG2 cell viability assay in 384 well format
- Format: toxicity, cell-based
- Design: dose 125 nL, time 70.5 hour; concentration not given beside the values
- run parameters: HepG2 cells, read-out: Inhibition
Entry rule: numbers only, all in %.

O=C(Nc1cc(-c2ccncc2)no1)C1CCCCC1 : -6.08
COc1cnc(CSc2nnc(C)s2)cc1OCC(=O)NC1CCCC1 : 2.36
Cc1ccc(C(=O)O)c(N2Cc3cnc(C(C)(C)C)nc3C2)n1 : -14.8

Prompt line: Look at this compound and give its reported cytotoxicity at 70.5 h. Cc1[nH]c(=O)[nH]c(=O)c1CN1CCCC(CCc2ccc(F)cc2F)C1 (centres undefined)
Response line: -9.69

Prompt line: I would be grateful if you could share the reported cytotoxicity at 70.5 h for CCC(C)[C@H](NC(=O)c1cc(F)ccc1-n1cnnn1)C(=O)OC (some centres undefined) .
Response line: -13.4

====

cytotoxicity at 70.5 h for assorted compounds
- assay method text: Human HepG2 cell viability assay in 384 well format
- Format: toxicity, cell-based
- Set-up: dose 125 nL, time 70.5 hour; concentration not given beside the values
- run parameters: HepG2 cells, read-out: Inhibition
Report only the number, with the unit % understood.

O=C(Cc1cccs1)N1CCC(O)(CN2CCc3ccccc3C2)C1 (configuration not stated) : -4.88
N#CC1COCCN1C(=O)c1ccc2[nH]ccc2c1 (configuration not stated) : 0.401
O=C(NCc1nnc2n1CCCCC2)N(Cc1ccncc1)C1CC1 : -4.16
O=C1COc2cc(S(=O)(=O)NCCC3=CCCCC3)c(Cl)cc2N1 : 14.7
CCOc1cccc(CSC(C)c2nc(C)no2)n1 (configuration not stated) : -3.8
CN(C)CCCN(CCC#N)C(=O)Nc1ccc2[nH]ccc2c1 : -4.34
CN(C)c1cccc(C(=O)Nc2cnn(Cc3ccccn3)c2)c1 : -9.4
CC(=O)N1N=C(c2ccccc2)OC1C(=O)NCCc1ccc(Cl)cc1 (configuration not stated) : 8.17
Cn1c(C(F)(F)F)nn(CCNC(=O)c2ccccn2)c1=O : -7.74
Cc1ccc(-c2cnnc(NCC3(N4CCOCC4)CCCC3)n2)o1 : -8.14

Prompt line: Which cytotoxicity at 70.5 h is listed for O=c1c2cccnc2cnn1CC(O)c1ccc(Br)cc1 (configuration not stated) ?
Response line: 12

Prompt line: Consider the compound shown here: C1=C(c2c[nH]c3ncccc23)CCN(Cc2nnc(C3CC3)o2)C1 What is its recorded cytotoxicity at 70.5 h?
Response line: 12.3

Prompt line: Reported cytotoxicity at 70.5 h, compound Cc1n[nH]c(C)c1C1CCCN1C(=O)CNC(=O)C(C)(C)C (configuration not stated) : ____
Response line: -0.174

Prompt line: What does the data say about its cytotoxicity at 70.5 h? Entry: CCn1ccnc1CN1CCCN(C(=O)Cc2ccc(C)s2)CC1
Response line: 26.4

====

- assay method text: Human HepG2 cell viability assay in 384 well format
- Assay type: toxicity, cell-based
- Set-up: dose 125 nL, time 70.5 hour; concentration not given beside the values
- run parameters: HepG2 cells, read-out: Inhibition
result type: cytotoxicity at 70.5 h (%)
The reply should be a number in %, with the unit left off.

Example entries begin here.
CCOc1ccnc(N2CCN(C(=O)c3cnc[nH]3)CC2)n1 : -0.507
Cc1nc[nH]c1CN1CCn2nc(CN3CC[C@H](F)C3)cc2C1 : -8.01
COCCN1C(=O)CCC12CCCN(C(=O)NC(C)C)CC2 (stereo not drawn) : 7.1
c1ccc2c(c1)OCCC2NCc1ccc(N2CCOCC2)cc1 (stereo not drawn) : -2.79
Cc1nc(CN(C)C2CCN(Cc3ccc(Cl)s3)C2)no1 (stereo not drawn) : -4.8

Prompt line: # input molecule: O=C1CN(C(=O)c2cc3ccc(Br)cc3[nH]2)CCN1 ; wanted: its cytotoxicity at 70.5 h
Response line: -9.95

Prompt line: For the molecule Cc1ccsc1CN1CCC2(CC1)CC(OCc1cccnc1)CO2 (stereo not drawn) , what cytotoxicity at 70.5 h is on record?
Response line: -0.0736

====

- assay method text: Human HepG2 cell viability assay in 384 well format
- Type: toxicity, cell-based
- Design: dose 125 nL, time 70.5 hour; concentration not given beside the values
- run parameters: HepG2 cells, read-out: Inhibition
result type: cytotoxicity at 70.5 h

Recorded results for 6 compounds are shown here.
Cc1cc(C)n(C2CCN(S(=O)(=O)N3CCC(C)CC3)CC2)n1 : -3.62%
CNC(=O)[C@@]12CCO[C@@H]1CCN(S(=O)(=O)c1ccccc1)C2 : -6.28%
Cc1c(C)n(CC(O)CN2CCC(C)CC2)c2c(Cl)cccc12 (centres undefined) : 14.8%
Cn1cc(N2CC3(CCN(Cc4ccccc4)CC3)OCC2=O)cn1 : 52.7%
COc1ccccc1C(O)CNC(=O)Nc1ccccn1 (centres undefined) : -5.18%
O=C(CCn1nc(C(=O)Nc2ccccc2)ccc1=O)Nc1nccs1 : 1.25%

Prompt line: Need cytotoxicity at 70.5 h of O=C(c1cccnc1)N1CCC2(CNS(=O)(=O)c3cnccc3O2)C1 (centres undefined) , thanks.
Response line: 17.8%

====

- assay method text: Human HepG2 cell viability assay in 384 well format
- Type: toxicity, cell-based
- Design: dose 125 nL, time 70.5 hour; concentration not given beside the values
- run parameters: HepG2 cells, read-out: Inhibition
result type: cytotoxicity at 70.5 h (%)
# output: bare number, implied unit %

Sample answers from the record:
CC(NC(=O)c1ccc(C#N)cn1)C1(N2CCOCC2)CCCC1 (stereo not drawn) : -7.03
O=C(Nc1ccc(CCN2CCC(O)CC2)cc1)C1CCCOC1 (stereo not drawn) : -3.52
Cc1cnc(C(=O)N2CCN(C(=O)CC(C)C)[C@@H]3CS(=O)(=O)C[C@@H]32)cn1 : -7.52
Cc1ccccc1CN1CCN(c2ncnc3c2NC(=O)CN3)CC1 : -8.36

Prompt line: Would you kindly share the measured cytotoxicity at 70.5 h for CC(Oc1ccc(S(C)(=O)=O)cc1)C(=O)NC(N)=O (stereo not drawn) ?
Response line: -7.21

Prompt line: Endpoint output: cytotoxicity at 70.5 h of O=C(Nc1ccc(-n2cncn2)c(F)c1)C1CCN(C(=O)C2CC2)CC1 . Value?
Response line: 1.9

Prompt line: Quick one: cytotoxicity at 70.5 h of COc1ccc(C[C@H]2CN(C(=O)c3ccncc3)CC[C@@H]2OC)cc1 ?
Response line: 18.8

Prompt line: Would you mind telling me what cytotoxicity at 70.5 h value was observed for Cc1ccccc1OCCCC(=O)NCC1CN(C)CCO1 (stereo not drawn) ?
Response line: -1.6

Prompt line: Need cytotoxicity at 70.5 h, item O=C1NCc2ccccc2CC12CCN(Cc1ccccc1Cl)CC2
Response line: -3.39

Prompt line: Reported cytotoxicity at 70.5 h, molecule CCc1c(C)nc(C2CCCN2C(=O)c2cc(C)no2)nc1O (stereo not drawn) : ____
Response line: 10.5

Prompt line: Fill blank: measured cytotoxicity at 70.5 h of the molecule NCC1CN(c2nc(-c3ccccc3)nc3c2CCNCC3)CCO1 (stereo not drawn) is ____.
Response line: 3.02
